Tested on: SKBR3 (PI3Kα-Wild Type) cell line
Assay: HTRF phospho-AKT(S473) cell assay in SKBR3 cells
Type: cell-based, human
Details: Homo sapiens, SK-BR-3; SKBR3 (PI3Kα-Wild Type) cells, HTRF phospho-AKT(S473), 2 hours compound incubation, PDGF-BB stimulated
Exercise: state measured IC50 for each of the compounds provided.

Report IC50, nothing else, for this compound: Cc1cc([C@@H](C)Nc2ccc(Cl)nc2C(=O)NS(C)(=O)=O)c2nc(-c3ccc(F)cn3)n(C)c(=O)c2c1 [Compound 88] 1 to 5 µM

Report IC50, nothing else, for this compound: Cc1cc([C@@H](C)Nc2ccc(Cl)nc2C(=O)NS(C)(=O)=O)c2nc(N3C[C@@H]4[C@H](C3)[C@H]4c3cnccn3)n(C)c(=O)c2c1 [Compound 439] 1 to 5 µM

Report IC50, nothing else, for this compound: Cc1cc([C@@H](C)Nc2ccc(Cl)nc2C(=O)NS(C)(=O)=O)c2nc(N3CCN(c4ncc(C#N)cc4F)CC3)n(C)c(=O)c2c1 [Compound 262] 1 to 5 µM

Report IC50, nothing else, for this compound: Cc1cc([C@@H](C)Nc2ccc(Cl)nc2C(=O)NS(C)(=O)=O)c2nc(N3CCC[C@H](c4ccncc4)C3)n(C)c(=O)c2c1 (relative stereo) [Compound 205] 1 to 5 µM

Report IC50, nothing else, for this compound: CO[C@H]1C[C@@H](S(=O)(=O)NC(=O)c2nc(Cl)ccc2N[C@H](C)c2cc(C)cc3c(=O)n(C)c(N4Cc5ccc(F)cc5C4)nc23)C1 [Compound 378] ≥ 5 µM

Report IC50, nothing else, for this compound: C[C@@H](Nc1cccnc1C(=O)NS(C)(=O)=O)c1cc(F)cc2c(=O)n(C)c(N3Cc4ccc(F)cc4C3)nc12 [Compound 60] 1 to 5 µM
